Data provenance is patent US20230322908A1.

koff overview
- Target Or System: T1, TP-51 peptide (aa 352-414 of SEQ ID NO:1) (human)
- T1 construct: Synthetic peptide (Pepscan)
- T1 peptide: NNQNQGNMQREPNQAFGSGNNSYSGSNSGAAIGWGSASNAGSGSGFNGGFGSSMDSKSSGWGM
- Experimental Details: SPR 8K, mAb captured, TP-51 injected; IgG1
Report only the number, with the unit s⁻¹ understood.

Consider the following illustrative entries.
[[record]]
binder = "hACI-7069-633B12-Ab1_H19L18 (IgG1 isotype) (antibody, V domains shown, Human IgG1 / kappa; also called hACI-7069-633B12-Ab1_H19L18 (hIgG1 isotype)) VH: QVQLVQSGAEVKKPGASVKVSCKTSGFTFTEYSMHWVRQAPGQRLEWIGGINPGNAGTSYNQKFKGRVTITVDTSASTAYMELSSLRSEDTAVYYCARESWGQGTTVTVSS VL: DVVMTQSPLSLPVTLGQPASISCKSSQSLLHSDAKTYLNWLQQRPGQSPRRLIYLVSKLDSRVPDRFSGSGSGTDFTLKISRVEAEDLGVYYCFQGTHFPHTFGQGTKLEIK"
measurement = 0.00015

[[record]]
binder = "hACI-7069-633B12-Ab1_H20L19 (IgG1) (antibody, V domains shown, Human IgG1 / kappa) VH: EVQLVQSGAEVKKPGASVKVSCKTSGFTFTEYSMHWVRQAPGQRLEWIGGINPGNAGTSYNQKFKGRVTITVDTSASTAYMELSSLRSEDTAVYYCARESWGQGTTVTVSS VL: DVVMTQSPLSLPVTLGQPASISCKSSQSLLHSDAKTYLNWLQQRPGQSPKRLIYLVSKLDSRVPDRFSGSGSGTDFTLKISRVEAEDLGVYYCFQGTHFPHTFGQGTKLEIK"
measurement = 0.00023


Input: Return koff (reported value) for this binder: hACI-7069-633B12-Ab1_H23L20 (IgG1) (antibody, V domains shown, Human IgG1 / kappa) VH: QVQLVQSGAEVKKPGASVKVSCKTSGFTFTEYSMHWVRQAPGQRLEWIGGINPGNGGTSYNQKFKGRVTITVDTSASTAYMELSSLRSEDTAVYYCARESWGQGTTVTVSS VL: DVVMTQSPLSLPVTLGQPASISCKSSQSLLHSDGKTYLNWLQQRPGQSPRRLIYLVSKLDSRVPDRFSGSGSGTDFTLKISRVEAEDLGVYYCWQGTHFPHTFGQGTKLEIK
Output: 0.00021
